test system: HeLa S-3 human cervical carcinoma cell line; experiment: HeLa GI50 determination (SRB); type: cell-based; details: Homo sapiens, HeLa S3, 48 h; HeLa S-3, 2 days of treatment, SRB; read-out: HeLa Cells GI50
Provide the reported GI50 of each item.
Quick reminder: number only, in nM, skip the unit.

Lookup: Provide one value: measured GI50 of CCC1=C[C@H]2CN(C1)Cc1c([nH]c3ccc(-c4cccc(O)c4)cc13)[C@@](C(=O)OC)(c1cc3c(cc1OC)N(C)[C@H]1[C@@](O)(C(=O)OC)[C@H](OC(C)=O)C4C(CC)=CCN5CC[C@]31[C@H]45)C2 (stereo partly shown) [Example 31, 11′-(3-hydroxyphenyl) vinorelbine]
Found: 300

Lookup: Let me know recorded GI50 for CCC1=C[C@H]2CN(C1)Cc1c([nH]c3ccc(SCc4ccccc4F)cc13)[C@@](C(=O)OC)(c1cc3c(cc1OC)N(C)[C@H]1[C@@](O)(C(=O)OC)[C@H](OC(C)=O)C4C(CC)=CCN5CC[C@]31[C@H]45)C2 (stereo partly shown) , thanks.
Found: 200

Lookup: Kindly indicate its recorded GI50. Item: CCC1=C[C@H]2CN(C1)Cc1c([nH]c3ccc(N)cc13)[C@@](C(=O)OC)(c1cc3c(cc1OC)N(C)[C@H]1[C@@](O)(C(=O)OC)[C@H](OC(C)=O)C4C(CC)=CCN5CC[C@]31[C@H]45)C2 (stereo partly shown)
Found: 300

Lookup: Return GI50 (reported value) for this compound: CCC1=C[C@H]2CN(C1)Cc1c([nH]c3ccc(Nc4ccc(OC)cc4)cc13)[C@@](C(=O)OC)(c1cc3c(cc1OC)N(C)[C@H]1[C@@](O)(C(=O)OC)[C@H](OC(C)=O)C4C(CC)=CCN5CC[C@]31[C@H]45)C2 (stereo partly shown)
Found: 300

----------
For each of the compounds below, state its GI50.
test system: HeLa S-3 human cervical carcinoma cell line; experiment: HeLa GI50 determination (SRB); type: cell-based; details: Homo sapiens, HeLa S3, 48 h; HeLa S-3, 2 days of treatment, SRB; read-out: HeLa Cells GI50
Number only, in µM; omit the unit.

Lookup: For the compound CCC1=C[C@H]2CN(C1)Cc1c([nH]c3ccc(-c4c(C)noc4C)cc13)[C@@](C(=O)OC)(c1cc3c(cc1OC)N(C)[C@H]1[C@@](O)(C(=O)OC)[C@H](OC(C)=O)C4C(CC)=CCN5CC[C@]31[C@H]45)C2 (stereo partly drawn) , give its reported GI50.
Found: 0.3

Lookup: Specify reported GI50 for the compound shown: C=Cc1ccc2[nH]c3c(c2c1)CN1CC(CC)=C[C@@H](C1)C[C@]3(C(=O)OC)c1cc2c(cc1OC)N(C)[C@H]1[C@@](O)(C(=O)OC)[C@H](OC(C)=O)C3C(CC)=CCN4CC[C@]21[C@H]34 (stereo partly drawn)
Found: 0.003

Lookup: Consider the compound CCC1=C[C@H]2CN(C1)Cc1c([nH]c3ccc(C)cc13)[C@@](C(=O)OC)(c1cc3c(cc1OC)N(C)[C@H]1[C@@](OC)(C(=O)OC)[C@H](OC(C)=O)C4C(CC)=CCN5CC[C@]31[C@H]45)C2 (stereo partly drawn) . State its measured GI50.
Found: 0.03

Lookup: Specify GI50 for CCC1=C[C@H]2CN(C1)Cc1c([nH]c3ccc(SCc4ccccc4Cl)cc13)[C@@](C(=O)OC)(c1cc3c(cc1OC)N(C)[C@H]1[C@@](O)(C(=O)OC)[C@H](OC(C)=O)C4C(CC)=CCN5CC[C@]31[C@H]45)C2 (stereo partly drawn) and stop.
Found: 0.3

Lookup: Please report the measured GI50 for CCC1=C[C@H]2CN(C1)Cc1c([nH]c3ccc(C#N)cc13)[C@@](C(=O)OC)(c1cc3c(cc1OC)N(C)[C@H]1[C@@](O)(C(=O)OC)[C@H](OC(C)=O)C4C(CC)=CCN5CC[C@]31[C@H]45)C2 (stereo partly drawn)
Found: 0.001

Lookup: Consider the compound CCCCC#Cc1ccc2[nH]c3c(c2c1)CN1CC(CC)=C[C@@H](C1)C[C@]3(C(=O)OC)c1cc2c(cc1OC)N(C)[C@H]1[C@@](O)(C(=O)OC)[C@H](OC(C)=O)C3C(CC)=CCN4CC[C@]21[C@H]34 (stereo partly drawn) . State its measured GI50.
Found: 0.04

Data provenance is patent US7842802B2.
